Target: T1, human prolactin receptor (PRLR) (human, UniProt P16471 25-622)
T1 sequence: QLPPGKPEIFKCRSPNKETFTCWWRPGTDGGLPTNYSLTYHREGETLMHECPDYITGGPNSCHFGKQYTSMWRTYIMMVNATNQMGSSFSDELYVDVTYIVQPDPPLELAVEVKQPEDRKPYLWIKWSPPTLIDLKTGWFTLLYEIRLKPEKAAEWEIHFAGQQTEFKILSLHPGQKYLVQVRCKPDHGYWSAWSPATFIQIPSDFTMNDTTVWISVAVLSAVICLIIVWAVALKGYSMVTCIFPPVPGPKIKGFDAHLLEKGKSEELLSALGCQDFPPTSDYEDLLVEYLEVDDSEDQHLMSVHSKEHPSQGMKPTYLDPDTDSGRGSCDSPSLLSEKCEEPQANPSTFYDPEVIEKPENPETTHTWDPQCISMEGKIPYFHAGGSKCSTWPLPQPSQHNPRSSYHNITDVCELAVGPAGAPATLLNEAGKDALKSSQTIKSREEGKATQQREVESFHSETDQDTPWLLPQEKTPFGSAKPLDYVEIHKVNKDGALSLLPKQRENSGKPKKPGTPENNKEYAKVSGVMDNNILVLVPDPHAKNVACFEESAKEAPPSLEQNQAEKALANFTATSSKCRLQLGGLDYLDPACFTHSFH
Assay: cell-based or functional assay
readout_type: % Kill, PC3/PRLR cells (%)
Numbers only, in %.

H1H6975N-DM1 (antibody, human IgG1, V domains shown, DM1 conjugated through SMCC linker; attachment residues not stated) VH: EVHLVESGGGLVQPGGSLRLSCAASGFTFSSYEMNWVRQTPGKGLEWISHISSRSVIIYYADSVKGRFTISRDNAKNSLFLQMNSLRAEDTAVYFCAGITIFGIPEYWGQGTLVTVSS VL: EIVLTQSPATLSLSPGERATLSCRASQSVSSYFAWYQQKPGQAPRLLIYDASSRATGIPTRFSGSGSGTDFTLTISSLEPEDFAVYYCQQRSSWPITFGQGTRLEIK ... 68
H1H6960N-DM1 (antibody, human IgG1, V domains shown, DM1 conjugated through SMCC linker; attachment residues not stated) VH: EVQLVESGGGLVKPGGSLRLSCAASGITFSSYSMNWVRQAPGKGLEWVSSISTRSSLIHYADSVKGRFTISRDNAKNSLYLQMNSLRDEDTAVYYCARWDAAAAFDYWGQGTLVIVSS VL: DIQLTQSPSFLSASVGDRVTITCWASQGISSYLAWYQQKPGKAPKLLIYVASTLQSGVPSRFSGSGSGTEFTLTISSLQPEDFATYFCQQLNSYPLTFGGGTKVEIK ... 82
H1H6953N-DM1 (antibody, human IgG1, V domains shown, DM1 conjugated through SMCC linker; attachment residues not stated) VH: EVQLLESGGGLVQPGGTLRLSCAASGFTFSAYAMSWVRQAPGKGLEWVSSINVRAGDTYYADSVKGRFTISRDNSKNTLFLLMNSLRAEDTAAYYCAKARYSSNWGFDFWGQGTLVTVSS VL: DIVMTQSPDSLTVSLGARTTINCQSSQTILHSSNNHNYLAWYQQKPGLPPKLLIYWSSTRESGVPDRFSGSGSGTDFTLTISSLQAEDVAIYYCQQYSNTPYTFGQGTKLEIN ... 67
H1H6958N2-DM1 (antibody, human IgG1, V domains shown, DM1 conjugated through SMCC linker; attachment residues not stated) VH: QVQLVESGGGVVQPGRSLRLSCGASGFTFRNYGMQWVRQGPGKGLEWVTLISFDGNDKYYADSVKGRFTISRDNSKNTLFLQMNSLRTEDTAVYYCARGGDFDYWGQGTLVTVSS VL: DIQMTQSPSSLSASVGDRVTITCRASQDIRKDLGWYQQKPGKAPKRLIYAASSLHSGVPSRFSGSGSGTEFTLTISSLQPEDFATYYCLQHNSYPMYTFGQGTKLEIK ... 83

I have 2 binders here; please give me % Kill, PC3/PRLR cells for each one.
1. H1H6959N2-DM1 (antibody, human IgG1, V domains shown, DM1 conjugated through SMCC linker; attachment residues not stated) VH: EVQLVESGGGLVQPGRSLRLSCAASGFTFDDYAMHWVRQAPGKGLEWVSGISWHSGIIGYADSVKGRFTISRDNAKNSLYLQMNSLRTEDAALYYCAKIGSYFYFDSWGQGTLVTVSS VL: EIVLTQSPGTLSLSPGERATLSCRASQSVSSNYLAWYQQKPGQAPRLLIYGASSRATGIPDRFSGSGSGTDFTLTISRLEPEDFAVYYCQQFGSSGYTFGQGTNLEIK
2. H1H6762P-DM1 (antibody, human IgG1, V domains shown, DM1 conjugated through SMCC linker; attachment residues not stated) VH: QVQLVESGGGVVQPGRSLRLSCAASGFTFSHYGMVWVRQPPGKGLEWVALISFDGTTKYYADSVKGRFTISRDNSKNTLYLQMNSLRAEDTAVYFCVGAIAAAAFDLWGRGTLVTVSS VL: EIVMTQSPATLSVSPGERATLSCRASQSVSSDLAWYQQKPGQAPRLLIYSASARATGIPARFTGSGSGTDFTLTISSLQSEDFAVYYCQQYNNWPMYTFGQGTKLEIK

Given back:
82
66

Origin of values: patent US20180185504A1
